Test: Inhibition of NS5A in Hepatitis C virus subtype 1a replicon infected in human HuH7 cells assessed as reduction in viral replication
attribute-measured: EC50 (nM)

Observe how each entry below is paired with its result.
{"columns": ["smiles-record", "measurement-units", "EC50"],
 "data": [
  ["CCCC(=O)Nc1ccc(-c2ccc(-c3c[nH]c([C@@H]4CCCN4C(=O)[C@H](NC(=O)N4CC[C@H](NC(=O)OCc5ccccc5)C4)c4ccccc4)n3)cc2)cc1", "nM", 82],
  ["CCCC(=O)Nc1ccc(-c2ccc(-c3c[nH]c([C@@H]4CCCN4C(=O)[C@H](NC(=O)c4ccccc4NC(=O)OCc4ccccc4)c4ccccc4)n3)cc2)cc1", "nM", 614],
  ["CCCC(=O)Nc1ccc(-c2ccc(-c3c[nH]c([C@@H]4CCCN4C(=O)[C@H](NC(=O)N4CC[C@@H](NC(=O)OCc5ccccc5)C4)c4ccccc4)n3)cc2)cc1", "nM", 1.1],
  ["CCCC(=O)Nc1ccc(-c2ccc(-c3c[nH]c([C@@H]4CCCN4C(=O)[C@H](NC(=O)CCCNC(=O)OCc4ccccc4)c4ccccc4)n3)cc2)cc1", "nM", 56]
]}

I = COC1CCN(C(=O)Nc2ccc(-c3ccc(-c4c[nH]c([C@@H]5CCCN5C(=O)[C@H](NC(=O)N5CC[C@@H](NC(=O)OCc6ccccc6)C5)c5ccccc5)n4)cc3)cc2)CC1
II = CCCC(=O)Nc1ccc(-c2ccc(-c3c[nH]c([C@@H]4CCCN4C(=O)[C@H](NC(=O)N4CCC[C@H](NC(=O)OCc5ccccc5)C4)c4ccccc4)n3)cc2)cc1
Problem: Pick one: I or II . Which has the bigger EC50 number? # respond with the chosen item's label
Solution: II
